Assay: AlphaScreen signal interference by compounds, dose response, artefact control for ASK1 inhibitor project, biochemical, TruHits beads (AID 1159604);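 note: loss of AlphaScreen light from TruHits beads alone with no ASK1 enzyme present; potency of signal reduction so a low IC50 flags an assay artifact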
Conditions: signal interference counterscreen
The other results are listed elsewhere or left out. The source made the active and inactive calls.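 Rule for the calls: active = IC50 of 10 µM or lower in the counterscreen; inactive = IC50 above 10 µM.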
Please answer using one outcome listed in true (active), false (inactive)

Query: recorded result category for c1ccc(-c2ncn[nH]2)c(Nc2ccnc(Nc3ccc(N4CCOCC4)cc3)c2)c1 in this test false

----------
Experiment: AlphaScreen signal interference by compounds, dose response, artefact control for ASK1 inhibitor project, biochemical, TruHits beads (AID 1159604);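 note: loss of AlphaScreen light from TruHits beads alone with no ASK1 enzyme present; potency of signal reduction so a low IC50 flags an assay artifact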
Settings: signal interference counterscreen
Some of the results follow. The source made the active and inactive calls.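 How the source made its calls: active means IC50 of 10 µM or lower in the counterscreen; inactive means IC50 above 10 µM.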
Please answer using one outcome listed in 1 (yes) for active, 0 (no) for inactive

Query: recorded result category for Nc1nc(Nc2ccc(N3CCOCC3)cc2)cc(-c2ccc3[nH]ccc3c2)n1 in this test 0 (no)

---
Query: recorded result category for Fc1cnc(Nc2ccc(N3CCNCC3)cc2)cc1-n1cnc(Nc2ccccc2)n1 in this test 0 (no)

Query: recorded result category for FC(F)(F)c1cccc(CNc2nc(N3CCN(c4ccccn4)CC3)nc3c2ncn3-c2ccsc2)c1 in this test 0 (no)

Query: recorded result category for FC(F)(F)c1cccc(CNc2nc(Nc3ccc(N4CCOCC4)cc3)nc3c2ncn3-c2ccsc2)c1 in this test 0 (no)

Query: recorded result category for COc1cc(Nc2nc(N3CCc4ccccc4C3)nc3c2ncn3-c2ccccc2)cc(OC)c1OC in this test 0 (no)

Query: recorded result category for COc1ccc(CCNc2cc(C)nc(Nc3cccc(N(C)C)c3)n2)cc1 in this test 1 (yes)

Query: recorded result category for Cc1cc(Nc2ccc3c(c2)OCO3)nc(Nc2cccc(N(C)C)c2)n1 in this test 1 (yes)

Reference source: PubChem BioAssay AID1159604
